- system_name: human Nav1.7 (Homo sapiens (Human), UniProt Q15858)
- Sequence (Q15858 other isoform, or with tags, fused parts or gaps): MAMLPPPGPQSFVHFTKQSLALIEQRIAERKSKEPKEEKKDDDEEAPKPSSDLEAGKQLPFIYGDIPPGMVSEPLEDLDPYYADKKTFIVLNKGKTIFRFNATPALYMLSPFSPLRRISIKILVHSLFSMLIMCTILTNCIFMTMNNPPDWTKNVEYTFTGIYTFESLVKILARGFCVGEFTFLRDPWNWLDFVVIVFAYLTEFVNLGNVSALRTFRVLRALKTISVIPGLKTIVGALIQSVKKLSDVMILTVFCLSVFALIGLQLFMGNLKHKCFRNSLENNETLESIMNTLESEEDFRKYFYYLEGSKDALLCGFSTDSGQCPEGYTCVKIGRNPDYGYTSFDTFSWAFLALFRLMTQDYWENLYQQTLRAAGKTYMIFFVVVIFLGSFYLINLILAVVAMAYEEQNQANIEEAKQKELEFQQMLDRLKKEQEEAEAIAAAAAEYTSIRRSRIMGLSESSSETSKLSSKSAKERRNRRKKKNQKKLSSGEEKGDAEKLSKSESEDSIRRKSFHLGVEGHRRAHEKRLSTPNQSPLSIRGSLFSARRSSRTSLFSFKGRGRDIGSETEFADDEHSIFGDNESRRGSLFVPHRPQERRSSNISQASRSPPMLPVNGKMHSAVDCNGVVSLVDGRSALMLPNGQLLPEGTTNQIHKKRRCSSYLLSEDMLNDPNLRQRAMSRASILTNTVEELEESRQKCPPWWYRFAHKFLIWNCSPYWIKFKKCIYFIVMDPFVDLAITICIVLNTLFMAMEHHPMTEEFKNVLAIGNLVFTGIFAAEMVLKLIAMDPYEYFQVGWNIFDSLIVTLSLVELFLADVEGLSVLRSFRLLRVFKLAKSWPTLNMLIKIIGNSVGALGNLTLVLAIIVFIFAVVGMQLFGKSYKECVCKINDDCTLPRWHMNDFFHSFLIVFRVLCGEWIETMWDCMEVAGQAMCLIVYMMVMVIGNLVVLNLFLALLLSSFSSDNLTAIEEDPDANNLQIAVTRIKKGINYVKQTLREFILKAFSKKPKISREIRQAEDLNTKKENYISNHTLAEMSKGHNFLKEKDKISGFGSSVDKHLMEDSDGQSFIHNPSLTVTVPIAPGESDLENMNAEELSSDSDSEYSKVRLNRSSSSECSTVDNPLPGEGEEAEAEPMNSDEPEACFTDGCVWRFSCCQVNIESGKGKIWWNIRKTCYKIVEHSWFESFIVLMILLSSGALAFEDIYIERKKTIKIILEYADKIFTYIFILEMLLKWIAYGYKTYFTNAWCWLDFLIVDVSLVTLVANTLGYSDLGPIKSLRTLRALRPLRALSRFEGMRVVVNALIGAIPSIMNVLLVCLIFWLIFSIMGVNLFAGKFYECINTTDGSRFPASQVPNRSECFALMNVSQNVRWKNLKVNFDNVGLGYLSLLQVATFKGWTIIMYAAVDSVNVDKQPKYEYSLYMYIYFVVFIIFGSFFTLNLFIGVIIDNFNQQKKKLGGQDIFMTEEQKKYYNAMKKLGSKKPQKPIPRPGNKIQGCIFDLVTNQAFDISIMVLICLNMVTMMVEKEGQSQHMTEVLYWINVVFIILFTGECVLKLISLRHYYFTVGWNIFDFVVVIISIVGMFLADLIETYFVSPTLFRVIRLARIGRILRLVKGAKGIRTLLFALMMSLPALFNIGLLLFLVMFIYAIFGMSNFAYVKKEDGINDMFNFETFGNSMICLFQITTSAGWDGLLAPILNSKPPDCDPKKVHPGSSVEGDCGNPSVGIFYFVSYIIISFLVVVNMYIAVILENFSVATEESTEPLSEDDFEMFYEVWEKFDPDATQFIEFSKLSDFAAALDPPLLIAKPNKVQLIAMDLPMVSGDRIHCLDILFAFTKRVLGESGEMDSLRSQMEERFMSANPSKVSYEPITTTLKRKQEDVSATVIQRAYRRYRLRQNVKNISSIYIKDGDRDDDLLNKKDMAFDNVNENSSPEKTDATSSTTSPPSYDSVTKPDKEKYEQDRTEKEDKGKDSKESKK
- experiment_notes: FLIPR membrane potential dye assay (alternative fluorescence assay)
- Format: cell-based
Kindly apply the following: Y if IC50 is less than 2000 nM, N in every other case.

Here are 5 compounds together with their reported answers.
# compound, class_name
measured = [
    ("O=C1NC(=O)C2(CCN(c3ncccc3Oc3ccc(F)cc3)CC2)N1", "N"),
    ("O=C1NC(=O)C2(CCN(c3ccc(Oc4ccc(F)cc4)cn3)CC2)N1", "N"),
    ("O=C1NC(=O)C2(CCN(c3ccc(Oc4cccc(F)c4)cc3)CC2)N1", "Y"),
    ("O=C1NC(=O)C2(CCN(c3ccc(Oc4ccc(C(F)(F)F)cc4)cn3)CC2)N1", "Y"),
    ("O=C1NC(=O)C2(CCN(c3cc(-c4ccc(OC(F)(F)F)cc4)ccn3)CC2)N1", "Y"),
]

Is it true that IC50 reported for O=C1NC(=O)C2(CCN(c3ccc(Oc4ccc(C(F)(F)F)cc4)cc3)CC2)N1 is less than 2000 nM? N

Is it true that IC50 reported for O=C1NC(=O)C2(CCN(c3ccc(Oc4cccc(C(F)(F)F)c4)cn3)CC2)N1 is less than 2000 nM? Y

Is it true that IC50 reported for O=C1NC(=O)C2(CCN(c3ccc(Oc4ccc(F)cc4)cc3)CC2)N1 is less than 2000 nM? N

Is it true that IC50 reported for O=C1NC(=O)C2(CCN(c3ccc(Oc4cccc(C(F)(F)F)c4)cc3)CC2)N1 is less than 2000 nM? Y

----------
Parameter IC50: see the listing below.
- system_name: human Nav1.7 (Homo sapiens (Human))
- experiment_notes: FLIPR sodium dye assay (CoroNa Green AM Na+ dye, primary fluorescence assay)
- Format: cell-based
- experimental_conditions: recombinant human Nav1.7 in HEK293
Numbers only here, please. The scale is µM.

# compound, quantity_name, value_measured
measured = [
    ("NC(=O)c1cc(N[C@H]2CCNC2=O)nc(N2CCC3(C=Cc4ccccc43)CC2)n1", "IC50", 1.3),
    ("NC(=O)c1cc(N[C@H]2CCNC2=O)nc(N2CCC3(CC2)OC(=O)c2ccccc23)n1", "IC50", 3.86),
]

GET /values?readout=IC50&item= NC(=O)c1cc(N[C@H]2CCNC2=O)nc(N2CCC3(CC2)OCc2ccccc23)n1 3.92
